Assayed system: Ubiquitin carboxyl-terminal hydrolase 1 (Homo sapiens)
Method notes: Inhibitors of USP1/UAF1: Pilot qHTS (AID 504865); also: nearly all actives have a fitted effect of over 35% in size
Condition parameters: purified USP1/UAF1, Ub-rhodamine cleavage fluorescence; series mostly up to 114 µM
Records with an inconclusive call do not appear. Activity calls are given as the source filed them. Calls follow the shape of the dose curve; as a rule, active = well fitted inhibition curve with a large enough effect; inconclusive = small, poorly fitted or top-dose-only effect; inactive = flat fitted curve, though single readings scatter.
Outcomes: TRUE for active, FALSE for inactive

{"Molecule": "C=CCN1CC[C@]23c4c5ccc(O)c4O[C@H]2/C(=N/NC(=O)c2ccccc2)CC[C@@]3(O)[C@H]1C5", "Class": "FALSE"}
{"Molecule": "CC(C)NP(=O)(NC(C)C)OP(=O)(NC(C)C)NC(C)C", "Class": "FALSE"}
{"Molecule": "CCCC(C)C1(CC)C(=O)NC(=O)NC1=O (centres undefined)", "Class": "FALSE"}
{"Molecule": "COc1cc(CC(C)N)c(OC)cc1I (centres undefined)", "Class": "FALSE"}
{"Molecule": "CN1CCCC(=C(c2cccs2)c2cccs2)C1", "Class": "FALSE"}
{"Molecule": "N#CCCN", "Class": "FALSE"}
{"Molecule": "CCNC(=O)[C@H]1O[C@@H](n2cnc3c(N)ncnc32)[C@H](O)[C@@H]1O", "Class": "FALSE"}
{"Molecule": "N#C/C(=C/c1ccc(O)c(O)c1)C(N)=S", "Class": "FALSE"}
{"Molecule": "CCCCNCC(O)c1ccc(O)cc1 (centres undefined)", "Class": "FALSE"}
{"Molecule": "C[N+]1(C)C2CCC1CC(OC(=O)c1c[nH]c3ccccc13)C2 (centres undefined)", "Class": "FALSE"}
{"Molecule": "C[N+](C)(C)CCOC(=O)CBr", "Class": "FALSE"}
{"Molecule": "Clc1ccc(N2CC3CCC(C2)N3)nn1", "Class": "FALSE"}
{"Molecule": "O=C(CCl)c1ccc(Oc2ccc(C(=O)CCl)cc2)cc1", "Class": "TRUE"}
{"Molecule": "O=C1CCO1", "Class": "FALSE"}
{"Molecule": "COc1ccc2c(c1O)-c1cccc3c1[C@@H](C2)N(C)CC3", "Class": "FALSE"}
{"Molecule": "C=CCN(C1=NCCN1)c1c(Cl)cccc1Cl", "Class": "FALSE"}
{"Molecule": "CC(C)[C@@]1(NC(=O)[C@@H]2C[C@@H]3c4cccc5[nH]cc(c45)C[C@H]3N(C)C2)O[C@@]2(O)[C@@H]3CCCN3C(=O)[C@H](Cc3ccccc3)N2C1=O", "Class": "FALSE"}
{"Molecule": "CCCC(C)(COC(N)=O)COC(=O)NC1CC1 (centres undefined)", "Class": "FALSE"}
{"Molecule": "O=C(NCNC(=O)NC1C(=O)NC(=O)N1CO)NC1C(=O)NC(=O)N1CO (centres undefined)", "Class": "FALSE"}
{"Molecule": "O=[N+]([O-])c1ccc2nc(N3CCNCC3)ccc2c1", "Class": "FALSE"}
{"Molecule": "CCCN(CCC)C1CCc2cccc(O)c2C1 (centres undefined)", "Class": "FALSE"}
{"Molecule": "CC(N)c1cccc(Cl)c1Cl (centres undefined)", "Class": "FALSE"}
{"Molecule": "CN(C(=O)Cc1ccc(Cl)c(Cl)c1)C(CN1CCCC1)c1cccc(OCC(=O)O)c1 (centres undefined)", "Class": "FALSE"}
{"Molecule": "C/C(=C\\c1csc(C)n1)[C@@H]1C[C@@H]2O[C@]2(C)CCC[C@H](C)[C@H](O)[C@@H](C)C(=O)C(C)(C)[C@@H](O)CC(=O)O1", "Class": "FALSE"}
